Measured values drawn from ChEMBL document CHEMBL1144491 for this set.

Measured Drug uptake, listed per entry.
# Test system: Brain
# Experimental protocol: Biodistribution in ddY mouse brain assessed as radioactivity at 0.5 uCi, iv after 2 mins
# Type: ADME, organism-based
# Experimental setup: in vivo
# value in % ID/g; strip the unit string

Nc1ccc(/C=C/c2cc(=O)c3cc([125I])ccc3o2)cc1 :: 4.88
CNc1ccc(/C=C/c2cc(=O)c3cc([125I])ccc3o2)cc1 :: 2.84

Attention now turns to another entry.
Which Drug uptake is reported for this compound? CN(C)c1ccc(/C=C/c2cc(=O)c3cc([125I])ccc3o2)cc1
1.14
